experiment: qHTS Assay for Lipid Storage Modulators (AID 1519); conditions: Drosophila S3 cells, BODIPY lipid droplet/cell ratio, laser cytometry; at 57.5 µM (top of the series); cells loaded with oleic acid; as to activity change, negative = inhibition: % is scaled to controls: 0 for no effect and ±100 for the full control effect
Inconclusive results are not listed.
readout_label: activity change, negative = inhibition (%)
Provide the reading as a plain figure in %.

As a guide, the following entries are already answered.
COC1CC(O[C@H]2/C(C)=C/CC3CC(C[C@]4(CCC(C)C(C5CCCCC5)O4)O3)OC(=O)[C@H]3C=C(C)/C(=N/O)C4OC/C(=C\C=C\[C@@H]2C)[C@@]43O)OC(C)C1O (stereo not given in full): -12.3
COc1ccccc1-c1coc2cc(O)ccc2c1=O: 5.08
N#Cc1cccc(-c2cncnc2-n2ccnc2)c1: 8.24

Exercise: Can you look up the measured activity change, negative = inhibition of CCCC(=O)O[C@]1(C(=O)CO)CCC2[C@@H]3CCC4=CC(=O)CC[C@]4(C)C3C(O)C[C@]21C (stereo not given in full) for me?
Solution: 9.93

Exercise: // query: C[C@]12C=CC(=O)C=C1CCC1C2C(O)C[C@]2(C)C1CC[C@]2(O)C(=O)CO (stereo not given in full)
Solution: 4.07

Exercise: Next molecule: `O=C/C=C/c1ccc(O)cc1`
Solution: 4.82

Exercise: Quick one: CC(=O)[C@]1(O)CCC2C3C=C(Cl)C4=CC(=O)C5CC5[C@@]4(C)C3CC[C@]21C (stereo not given in full)
Solution: 8.7

Exercise: Also, CC(=O)OC1CCC2C3CCc4cc(O)ccc4C3CCC12C (stereo not given) please.
Solution: -1.06

Exercise: Param item: CC(=O)OCC(=O)[C@@]12OC3(CCCC3)OC1CC1C3CCC4=CC(=O)C=C[C@@]4(C)[C@]3(F)C(O)C[C@]12C (stereo not given in full)
Solution: 9.16

Exercise: Follow-up item: `CC1=CC(=O)[C@@H]2C[C@H]1C2(C)C`
Solution: 4.82

Exercise: Next molecule up: COC(=O)[C@]1(C)CCC[C@]2(C)c3ccc(C(C)C)cc3C(=O)CC12 (stereo not given in full)
Solution: 1.78

Exercise: Please give the result for `Cc1cc(=O)oc2cc(O[C@@H]3O[C@H](C(=O)O)[C@@H](O)[C@H](O)[C@H]3O)ccc12` too.
Solution: 7.88

Exercise: Continue with Oc1cc(O)c2c(c1)OC(c1cc(O)c(O)c(O)c1)C(O)C2 (stereo not given)
Solution: 12.8

Exercise: Next entry: C[C@]12CCC(=O)C=C1CCC1C2C(O)C[C@]2(C)C1CC[C@]2(O)C(=O)CO (stereo not given in full)
Solution: 12.8

Exercise: // query: COC(=O)/C(=C1\OC(=O)C(c2ccccc2)C1=O)c1ccccc1 (stereo not given)
Solution: 5.87

Exercise: # iterate: `O=C(/C=C/C(=O)Oc1ccccc1C(=O)O)Oc1ccccc1C(=O)O`
Solution: 7.98

Exercise: Try CC(=O)O[C@@]1(C(C)=O)CCC2C3C=C(Cl)C4=CC(=O)C5CC5[C@@]4(C)C3CC[C@]21C (stereo not given in full) next.
Solution: 2.54

Exercise: Same for COC1C=CO[C@@]2(C)Oc3c(C)c(O)c4c(O)c(c5c(nc6cc(C)ccn65)c4c3C2=O)NC(=O)/C(C)=C\C=CC(C)C(O)[C@@H](C)C(O)C(C)[C@@H](OC(C)=O)C1C (stereo not given in full)
Solution: -13.7

Exercise: # iterate: `COc1c(C(C)C)oc2cc3oc(=O)ccc3cc12`
Solution: 5.54

* * *

molecular target: Cytochrome P450 2C9 (Homo sapiens) (UniProt P11712); test: qHTS Assay for Inhibitors and Substrates of Cytochrome P450 2C9 (AID 883); conditions: recombinant CYP2C9, luciferin-H luminescence, 60 min; series mostly up to 25.6 µM; also: nearly all actives have a fitted effect of over 60% in size
Sequence (P11712 whole entry, looked up): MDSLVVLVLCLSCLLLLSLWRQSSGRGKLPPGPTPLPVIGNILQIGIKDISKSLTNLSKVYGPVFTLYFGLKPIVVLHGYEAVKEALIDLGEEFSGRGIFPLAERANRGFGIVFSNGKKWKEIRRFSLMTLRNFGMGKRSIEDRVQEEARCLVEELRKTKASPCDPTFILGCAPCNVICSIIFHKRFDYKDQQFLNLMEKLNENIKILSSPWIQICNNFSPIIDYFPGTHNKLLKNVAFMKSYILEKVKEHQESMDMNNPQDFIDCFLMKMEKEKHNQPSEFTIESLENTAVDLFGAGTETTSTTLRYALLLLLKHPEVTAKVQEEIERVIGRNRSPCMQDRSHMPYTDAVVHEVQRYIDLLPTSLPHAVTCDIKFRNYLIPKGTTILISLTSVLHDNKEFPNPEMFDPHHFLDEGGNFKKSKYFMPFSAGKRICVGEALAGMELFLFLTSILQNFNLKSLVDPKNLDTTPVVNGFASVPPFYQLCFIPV
Inconclusive results are not listed. Calls of active or inactive are those of the source. Calls come from the whole dose curve; as a rule, active = well fitted inhibition curve with a large enough effect; inconclusive = small, poorly fitted or top-dose-only effect; inactive = no such curve, though single readings can be large or run the other way.
Outcome (select one): Y for active, N for inactive

Consider the worked cases shown below.
C=CCSC[C@@H]1Nc2cc(Cl)c(S(N)(=O)=O)cc2S(=O)(=O)N1: N
COc1ccc2c3c([nH]c2c1)[C@@H]1C[C@@H]2[C@@H](C[C@H](O)[C@H](OC)[C@H]2C(=O)O)CN1CC3: N
Nc1ccccc1S(N)(=O)=O: N

Exercise: Assay outcome for `C[C@@H](Cc1cccc(C(F)(F)F)c1)NCCOC(=O)c1ccccc1` : what was it?
Solution: N

Exercise: Also `C=CCOc1ccccc1OC[C@H](O)CNC(C)C` , if possible.
Solution: N

Exercise: Also `CC[C@H](CO)NCCN[C@@H](CC)CO` ?
Solution: N

Exercise: Next molecule up: `NCCC(=O)N[C@@H](Cc1cnc[nH]1)C(=O)O`
Solution: N

Exercise: Now the same for `O=c1cc(-c2cccc(O)c2)oc2cc(O)ccc12`
Solution: Y

Exercise: Check `Clc1ccc(CC[C@H](Cn2ccnc2)Sc2c(Cl)cccc2Cl)cc1` too.
Solution: Y

Exercise: Continue with `NC(=O)c1ccc[n+]([C@@H]2O[C@H](COP(=O)([O-])OP(=O)(O)OC[C@H]3O[C@@H](n4cnc5c(N)ncnc54)[C@@H](O)[C@@H]3O)[C@@H](O)[C@@H]2O)c1`
Solution: N

Exercise: Same read-out for `CN1[C@H](CC(=O)c2ccccc2)CCC[C@H]1C[C@@H](O)c1ccccc1` ?
Solution: N

Exercise: And `Cc1onc(-c2c(Cl)cccc2Cl)c1C(=O)N[C@H]1C(=O)N2[C@H]1SC(C)(C)[C@H]2C(=O)O` ?
Solution: N

* * *

molecular target: Cytochrome P450 2C9 (Homo sapiens) (UniProt P11712); assay: Cytochrome P450 family 2 subfamily C member 9 (CYP2C9) small molecule antagonists: luciferase biochemical (cell-free) qHTS assay (AID 1645842); details: P450-Glo CYP2C9 enzyme assay, luciferin luminescence; series mostly up to 57.4 µM; also: potency is read from the fitted curve at half-maximal effect; nearly all actives have a fitted effect of over 55% in size
Results filed as inconclusive are left out. Active and inactive are the calls of the source. Calls come from the whole dose curve; as a rule, active = well fitted inhibition curve with a large enough effect in the repeat runs; inconclusive = weak or mixed curves; inactive = no such curve, though single readings can be large or run the other way.
readout_label: Potency

Worked set:
C=C1CC[C@H](O)C/C1=C\C=C1/CCCC2(C)C1CCC2C(C)CCCC(C)C (stereo partly drawn): 23.9 µM (active)
OCC=Cc1ccccc1: 19 µM (active)

Exercise: Request the reported Potency associated with `CC(=O)Nc1ccc(C)cc1-c1nc2ccccc2n(CC(=O)Nc2cc(Cl)ccc2C)c1=O`
Solution: 3.01 µM (active)

* * *

assay: qHTS Assay for Lipid Storage Modulators (AID 1519); details: Drosophila S3 cells, BODIPY lipid droplet/cell ratio, laser cytometry; measured here: lipid channel max response; cells loaded with oleic acid
Records with an inconclusive call do not appear.
readout_label: max response (%)
Please respond with the number in % and leave the unit unwritten.

COc1ccc2c(c1)N(C[C@@H](C)CN(C)C)c1ccccc1S2: -12.9
C=CCN1C(=CCO)[C@H]2C[C@H]3[C@@H]1CC[C@@]31c3ccccc3N3C=C4[C@@H]5N(/C=C/2[C@H]31)c1ccccc1[C@]51CC[C@H]2[C@H]1C[C@@H]4/C(=C/CO)N2CC=C: -15.8
CC1(C)S[C@@H]2[C@H](NC(=O)COc3ccccc3)C(=O)N2[C@H]1C(=O)O (tested in a mixture with another compound): -7.74
C#C[C@@]1(O)CC[C@@H]2[C@@H]3CCC4=CC(=O)CC[C@@H]4[C@H]3CC[C@]21CC: -10.4

Exercise: Dear colleague, I am looking for the recorded max response of the following compound: `C[C@]1(OC(=O)/C=C\c2ccccc2)C[C@@H](O)[C@@]2(O)C=CO[C@@H](O[C@H]3O[C@@H](CO)[C@@H](O)[C@@H](O)[C@@H]3O)[C@H]21`
Solution: -17.4

Exercise: Try this compound too: `O=c1cc(-c2ccc(O)cc2)oc2c([C@H]3O[C@@H](CO)[C@@H](O)[C@@H](O)[C@@H]3O)c(O)cc(O)c12`
Solution: 1.02

Exercise: Next: Nc1nc(Cl)c2ncn(C3OC(CO)C(O)C3O)c2n1 (stereo not given)
Solution: -7.18

Exercise: Query `C=C1CC[C@@H]2O[C@@]2(C)CC[C@H]2[C@H]1CC2(C)C` next
Solution: 21.2

Exercise: Try this compound too: `C[C@@H]1[C@H]2CC[C@@H]3[C@@H]4CC=C5C[C@@H](N(C)C)CC[C@]5(C)[C@@H]4CC[C@@]32CN1C`
Solution: -8.59

* * *

assay: qHTS Assay for Lipid Storage Modulators (AID 1519); conditions: Drosophila S3 cells, BODIPY lipid droplet/cell ratio, laser cytometry; measured here: cell count channel max response; cells loaded with oleic acid
Results filed as inconclusive are left out.
Here, each record is paired with measured max response data.
Give just the numeric value; % need not be written.

COc1ccc2c(c1)[C@]1(C)CCC(=O)C[C@H]1CC2: -1.73
CC(=O)OC1CC2C(C)(C)C(=O)CC[C@]2(C)C2CC[C@@]3(C)C(c4ccoc4)OC(=O)C4OC43[C@]12C (some centres undefined): 22.7
CCOC(=O)C(CCc1ccccc1)NC(C)C(=O)N1CCCC1C(=O)O (centres undefined): 9.89
Nc1nc2c(nc(Sc3ccc(Cl)cc3)n2C2OC(CO)C(O)C2O)c(=O)[nH]1 (centres undefined): 14.6
CC1=C(C(=O)O)N2C(=O)[C@@H](NC(=O)[C@@H](N)c3ccc(O)cc3)[C@@H]2SC1: -1.1
COC1C[C@@H](O[C@@H]2C(C)C(=O)OC(C)C(C)C(O)C(C)C(=O)[C@@]3(CO3)CC(C)C(OC3OC(C)CC(N(C)C)C3O)C2C)OC(C)[C@@H]1O (some centres undefined): 4.4
Cc1cc(O)c(C=O)c2c1C(=O)Oc1c(COC(=O)/C=C/C(=O)O)c(O)c(C(=O)O)c(C)c1O2: 6.76
CC(C1OC(C)(C)C(O)C1O)C1CC[C@@]2(C)C3=CCC4C(C)(C)C(=O)CC[C@]4(C)C3CC[C@@]12C (some centres undefined): -0.971

Exercise: So what's the measured max response for this one? CC(=O)OC1CC[C@]2(C)C(=CCC3C4CCC(C(C)CCCC(C)C)[C@]4(C)CCC32)C1 (some centres undefined)
Solution: 9.32

Exercise: Queued: CCOC(=O)OC(C)OC(=O)C1N2C(=O)C(NC(=O)C(N)c3ccccc3)C2SC1(C)C (centres undefined)
Solution: 21.6

Exercise: Then this compound: `COC1=CC(=O)C(O)=C/C1=C\C=C\c1ccccc1`
Solution: -8.41

Exercise: Queued: `COc1ccccc1-c1cc(=O)c2cccc(OC)c2o1`
Solution: 13.5

Exercise: Further, for `COC(=O)/C=C/C(C)=C/C=C/C(C)=C/C=C/C=C(C)/C=C/C=C(C)/C=C/C(=O)O` ?
Solution: 17.2

Exercise: Nc1nc2c([nH]c(=O)n2C2OC(CO)C(O)C2O)c(=O)[nH]1 (centres undefined) , same question.
Solution: 9.74

Exercise: Check CC1(C)CC23C(=O)CCC(O)C2(C)CCC13 (centres undefined) too.
Solution: 8.4

Exercise: Then this compound: `C/C=C1\C2C=C(C)C[C@@]1(N)c1ccc(=O)[nH]c1C2`
Solution: 9.87

Exercise: Record: C[C@H](CCC(=O)O)[C@H]1CC[C@H]2[C@H]3C(C[C@H](O)[C@]12C)[C@@]1(C)CC[C@@H](O)C[C@H]1C[C@H]3O (some centres undefined)
Solution: 17.9

Exercise: Same for O=C1CC(c2ccc(O)c(O)c2)Oc2cc(O)cc(O)c21 (centres undefined)
Solution: -10.3

Exercise: Please give the result for CC1(C)CC2C1CC[C@]1(C)CCC3C(C(=O)O)CC(=O)O[C@]32C1 (some centres undefined) too.
Solution: 4.93

Exercise: And what about the compound `COc1cc(-c2cc(=O)c3c(O)c(OC)c(OC)c(OC)c3o2)cc(OC)c1OC` ?
Solution: 5.14
